src = patent US7135457B1

# method: Drug potency, peptide loading and size of coacervated particles
# Assay type: physicochemical
# conditionsUsed: formulation 1 particles (coacervation), blend, coated with the named peptide
recordedEndpoint: Insulin (insulin potency)
I'd appreciate it if you included the unit after the number.

{"residueString": "RYKHDIGCDAGVDKKSSSVRGGCGAHSSPPRAGRGPRGTMVSRL [DCX8]", "Insulin (insulin potency)": "59.1 mg/g"}
{"residueString": "SARDSGPAEDGSRAVRLNGVENANTRKSSRSNPRGRRHP [Peptide P31]", "Insulin (insulin potency)": "67.0 mg/g"}
{"residueString": "RGSTGTAGGERSGVLNLHTRDNASGSGFKPWYPSNRGHK [Peptide 5PAX5]", "Insulin (insulin potency)": "52.7 mg/g"}
{"residueString": "RVGQCTDSDVRRPWARSCAHQGCGAGTRNSHGCITRPLRQASAH [SNi10]", "Insulin (insulin potency)": "59.5 mg/g"}
{"residueString": "SPCGGSWGRFMQGGLFGGRTDGCGAHRNRTSASLEPPSSDY [SNi34]", "Insulin (insulin potency)": "61.5 mg/g"}
{"residueString": "SDHALGTNLRSDNAKEPGDYNCCGNGNSTGRKVFNRRRPSAIPT [HAX42]", "Insulin (insulin potency)": "55.9 mg/g"}

Now for another entry.
## Input What does the data say about its Insulin (insulin potency)? Entry: STPPSREAYSRPYSVDSDSDTNAKHSSHNRRLRTRSRPN [PAX2]
## Output 60.7 mg/g

* * *

Binding value at 50 μg/ml by entry:
# Test system: P100 membrane fractions derived from Caco-2 cells
# method: Dansylated peptide ELISA on P100: PAX2 and HAX42 peptides relative binding
# conditionsUsed: PAX2 peptides, ratio to ZElan021 (HAX42 = 1.00), first 50 μg/ml column
Peptide text beside a SMILES is read from it. * marks the point of attachment. Dansyl = CN(C)c1cccc2c(S(=O)(=O)*)cccc12
Answer with a bare number; do not write a unit.

{"molecule": "CC(C)C[C@H](NC(=O)[C@H](CCCNC(=N)N)NC(=O)[C@H](CCCNC(=N)N)NC(=O)[C@H](CC(N)=O)NC(=O)[C@H](Cc1c[nH]cn1)NC(=O)[C@H](CO)NC(=O)[C@H](C)NC(=O)[C@@H](N)CCCCNS(=O)(=O)c1cccc2c(N(C)C)cccc12)C(=O)N[C@@H](CCCNC(=N)N)C(=O)N[C@H](C(=O)N[C@@H](CCCNC(=N)N)C(N)=O)[C@@H](C)O [ZElan073] (H-K(Dansyl)ASHNRRLRTR-NH2)", "valueMeasured": "−0.11"}
{"molecule": "CC(C)C[C@H](NC(=O)[C@H](CCCNC(=N)N)NC(=O)[C@H](CCCNC(=N)N)NC(=O)[C@H](CC(N)=O)NC(=O)[C@H](Cc1c[nH]cn1)NC(=O)[C@H](CO)NC(=O)[C@H](CO)NC(=O)[C@@H](N)CCCCNS(=O)(=O)c1cccc2c(N(C)C)cccc12)C(=O)N[C@@H](CCCNC(=N)N)C(=O)N[C@H](C(=O)N[C@@H](CCCNC(=N)N)C(N)=O)[C@@H](C)O [ZElan035] (H-K(Dansyl)SSHNRRLRTR-NH2)", "valueMeasured": 0.81}

Here's the next entry for you.
## Input # Binding value at 50 μg/ml lookup, item CC(C)C[C@H](NC(=O)[C@H](CCCNC(=N)N)NC(=O)[C@H](CCCNC(=N)N)NC(=O)[C@H](C)NC(=O)[C@H](Cc1c[nH]cn1)NC(=O)[C@H](CO)NC(=O)[C@H](CO)NC(=O)[C@@H](N)CCCCNS(=O)(=O)c1cccc2c(N(C)C)cccc12)C(=O)N[C@@H](CCCNC(=N)N)C(=O)N[C@H](C(=O)N[C@@H](CCCNC(=N)N)C(N)=O)[C@@H](C)O [ZElan076] (H-K(Dansyl)SSHARRLRTR-NH2)
## Output 1.00

* * *

# Tested on: fixed Caco-2 or C2BBe1 cells
# method: ELISA of GST fusion proteins on fixed Caco-2 or C2BBe1 cells
# Type: binding
# conditionsUsed: Caco-2
recordedEndpoint: binding to fixed Caco-2 or C2BBe1 cells relative to GST control

Solved cases below.
{"substance": "gst-RGSTGTAGGERSGVLNLHTRDNASGSGFKPWYPSNRGHK [GST-5PAX5]", "targetEntity": "fixed Caco-2 or C2BBe1 cells", "valueMeasured": "weak to moderate binding"}
{"substance": "gst-RYKHDIGCDAGVDKKSSSVRGGCGAHSSPPRAGRGPRGTMVSRL [GST-DCX8]", "targetEntity": "fixed Caco-2 or C2BBe1 cells", "valueMeasured": "bound"}
{"substance": "gst-SPCGGGSWCRFMQGGLFGGRTDGCGAHRNRTSASLEPPSSDY [GST-SNi34]", "targetEntity": "fixed Caco-2 or C2BBe1 cells", "valueMeasured": "bound"}
{"substance": "gst-SDHALGTNLRSDNAKEPGDYNCCGNGNSTGRXVFNRRRPSAIPT [GST-HAX42]", "targetEntity": "fixed Caco-2 or C2BBe1 cells", "valueMeasured": "weak to moderate binding"}

## Input State the recorded binding to fixed Caco-2 or C2BBe1 cells relative to GST control for this entry: gst-STPPSREAYSRPYSVDSDSDTNAKHSSHNRRLRTRSRPN [GST-PAX2]
## Output bound

## Input Fill in the blank: the reported binding to fixed Caco-2 or C2BBe1 cells relative to GST control of gst-SARDSCPAEDGSRAVRLNGVENANTRKSSRSNPRGRRHP [GST-P31] is ____.
## Output bound

* * *

# Test system: P100 membrane fractions derived from Caco-2 cells
# method: Dansylated peptide ELISA on P100: PAX2 and HAX42 peptides relative binding
# conditionsUsed: PAX2 peptides, ratio to ZElan021 (HAX42 = 1.00), first 20 μg/ml column
Peptide text beside a SMILES is read from it. * marks the point of attachment. Dansyl = CN(C)c1cccc2c(S(=O)(=O)*)cccc12
Overview of reported Binding value at 20 μg/ml across a group of compounds:
// return just the number, without any unit appended

Below, 3 compounds whose answers are already recorded.
{"compound": "CC(C)C[C@H](NC(=O)[C@H](CCCNC(=N)N)NC(=O)[C@H](CCCNC(=N)N)NC(=O)[C@H](CC(N)=O)NC(=O)[C@H](C)NC(=O)[C@H](CO)NC(=O)[C@H](CO)NC(=O)[C@@H](N)CCCCNS(=O)(=O)c1cccc2c(N(C)C)cccc12)C(=O)N[C@@H](CCCNC(=N)N)C(=O)N[C@H](C(=O)N[C@@H](CCCNC(=N)N)C(N)=O)[C@@H](C)O [ZElan075] (H-K(Dansyl)SSANRRLRTR-NH2)", "Binding value at 20 μg/ml": 0.13}
{"compound": "CC(C)C[C@H](NC(=O)[C@H](CCCNC(=N)N)NC(=O)[C@H](CCCNC(=N)N)NC(=O)[C@H](CC(N)=O)NC(=O)[C@H](Cc1c[nH]cn1)NC(=O)[C@H](CO)NC(=O)[C@H](CO)NC(=O)[C@@H](N)CCCCNS(=O)(=O)c1cccc2c(N(C)C)cccc12)C(=O)N[C@@H](C)C(=O)N[C@H](C(=O)N[C@@H](CCCNC(=N)N)C(N)=O)[C@@H](C)O [ZElan080] (H-K(Dansyl)SSHNRRLATR-NH2)", "Binding value at 20 μg/ml": 0.23}
{"compound": "CC(C)C[C@H](NC(=O)[C@H](CCCNC(=N)N)NC(=O)[C@H](CCCNC(=N)N)NC(=O)[C@H](CC(N)=O)NC(=O)[C@H](Cc1c[nH]cn1)NC(=O)[C@H](C)NC(=O)[C@H](CO)NC(=O)[C@@H](N)CCCCNS(=O)(=O)c1cccc2c(N(C)C)cccc12)C(=O)N[C@@H](CCCNC(=N)N)C(=O)N[C@H](C(=O)N[C@@H](CCCNC(=N)N)C(N)=O)[C@@H](C)O [ZElan074] (H-K(Dansyl)SAHNRRLRTR-NH2)", "Binding value at 20 μg/ml": 0.06}

## Input Which Binding value at 20 μg/ml value is on record for C[C@H](NC(=O)[C@H](CC(N)=O)NC(=O)[C@@H](NC(=O)[C@@H](N)CCCCNS(=O)(=O)c1cccc2c(N(C)C)cccc12)[C@@H](C)O)C(=O)N[C@@H](CCCCN)C(=O)N[C@@H](Cc1c[nH]cn1)C(=O)N[C@@H](CO)C(=O)N[C@@H](CO)C(=O)N[C@@H](Cc1c[nH]cn1)C(=O)N[C@@H](CC(N)=O)C(N)=O [ZElan055] (H-K(Dansyl)TNAKHSSHN-NH2) ?
## Output 0.99

## Input Reported Binding value at 20 μg/ml, compound CC(C)C[C@H](NC(=O)[C@H](CCCNC(=N)N)NC(=O)[C@H](CCCNC(=N)N)NC(=O)[C@H](CC(N)=O)NC(=O)[C@H](Cc1c[nH]cn1)NC(=O)[C@H](CO)NC(=O)[C@H](C)NC(=O)[C@@H](N)CCCCNS(=O)(=O)c1cccc2c(N(C)C)cccc12)C(=O)N[C@@H](CCCNC(=N)N)C(=O)N[C@H](C(=O)N[C@@H](CCCNC(=N)N)C(N)=O)[C@@H](C)O [ZElan073] (H-K(Dansyl)ASHNRRLRTR-NH2) : ____
## Output 0.07
